- system tested: T1, apical domain of cynomolgus CD71 (cynomolgus, UniProt A0A2K5X958 189-383)
- T1 construct: domain: apical domain; also called Cyno apical domain
- T1 sequence (A0A2K5X958 entry or part of it): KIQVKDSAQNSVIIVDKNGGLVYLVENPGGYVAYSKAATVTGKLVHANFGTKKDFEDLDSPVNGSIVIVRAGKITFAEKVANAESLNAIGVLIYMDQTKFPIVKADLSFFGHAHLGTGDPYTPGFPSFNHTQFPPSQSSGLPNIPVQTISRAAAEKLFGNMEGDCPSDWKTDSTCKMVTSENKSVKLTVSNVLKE
- assay: primary ELISA, signal ratio to HSA
endpoint label: Cyno apical domain:HSA

binder="CD71-binding FN3 domain of SEQ ID NO: 194 (designed binder) MSLPAPKNLVVSRVTEDSARLSWTAPDAAFDSFEIGYFENLYLGEAIVLTVPGSERSYDLTGLKPGTEYPVWIGGVKGGTWSVPLSTIFTT" reported_result=77

Request: Would you kindly share the measured Cyno apical domain:HSA for CD71-binding FN3 domain of SEQ ID NO: 209 (designed binder) MSLPAPKNLVVSRVTEDSARLSWTAPDAAFDSFEIAYFERTWFGEAIVLTVPGSERSYDLTGLKPGTEYWVQIGGVKGGDWSRPLSAIFTT ?
Result: 423

Request: Now this one: CD71-binding FN3 domain of SEQ ID NO: 138 (designed binder) MSLPAPKNLVVSRVTEDSARLSWTAPDAAFDSFFIGYLEPQPPGEVIHLFVPGSERSYDLTGLKPGTEYNVTIQGVKGGFPSMPLSAIFTT
Result: 275

Request: Same question for CD71-binding FN3 domain of SEQ ID NO: 158 (designed binder) MSLPAPKNLVVSRVTEDSARLSWTAPDAAFDSFEIAYFERTWFGEAIVLTVPGSERSYDLTGLKPGTEYWVQIGGVKGGDWSKPLSAIFTT please.
Result: 99

Request: Queued: CD71-binding FN3 domain of SEQ ID NO: 159 (designed binder) MSLPAPKNLVVSRVTEDSARLSWTAPDAAFDSFEIVYQENSAYGEAIVLTVPGSERSYDLTGLKPGTEYWVQIGGVKGGNWSAPLSAISTT
Result: 72

Where do the numbers come from? From patent US20260151494A1.
